# System: giant foxtail (Setaria faberi)
# test protocol: Test A pre-/postemergence plant response
# Format: in vivo
# assay setup: Preemergence, 31 g ai/ha; 0 to 100 scale, 0 is no effect, 100 is complete control
measurement label: Plant response rating, Foxtail, Giant

[[record]]
compound = "CCc1cc(-c2ccc(Br)cc2)nn1-c1c(O)c(C)nn(C)c1=O"
target_or_system = "giant foxtail (Setaria faberi)"
test_value = 90

[[record]]
compound = "CCCc1cc(-c2ccc(C(F)(F)F)cc2)nn1-c1c(O)cnn(C)c1=O"
target_or_system = "giant foxtail (Setaria faberi)"
test_value = 70

[[record]]
compound = "Cc1cc(-c2ccc(Cl)cc2)nn1-c1c(OS(=O)(=O)C(C)C)cnn(C)c1=O"
target_or_system = "giant foxtail (Setaria faberi)"
test_value = 70

[[record]]
compound = "CCCc1cc(-c2ccc(Cl)cc2)nn1-c1c(O)cnn(C)c1=O [Compound 43]"
target_or_system = "giant foxtail (Setaria faberi)"
test_value = 90

[[record]]
compound = "CCCc1cc(-c2ccc(Cl)cc2)nn1-c1c(O)cnn(C)c1=O [Compound 76]"
target_or_system = "giant foxtail (Setaria faberi)"
test_value = 70

[[record]]
compound = "Cc1cc(-c2ccc(Cl)cc2)nn1-c1c(OC(=O)c2cccc(Cl)c2)cnn(C)c1=O"
target_or_system = "giant foxtail (Setaria faberi)"
test_value = 90

